B1: Mineralocorticoid receptor, residues 600 to 675; numbered along this chain, P08235 (parent)
chain: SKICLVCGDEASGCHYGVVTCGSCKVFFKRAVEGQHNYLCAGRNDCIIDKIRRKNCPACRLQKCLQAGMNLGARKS

Variants of: B1
Experiment: abundance fitness (aPCA) (normalised: wild type 0, dead -1); higher = more abundant; growth selection in yeast, the domain comes from the species named
Conditions: Homo sapiens
abundance fitness: recorded values
Write no unit; give the number alone.

These recorded examples may help you get a feel for the data.
[[record]]
sequence_content = "SKICLVCGDEASGCCYGVVTCGSCKVFFKRAVEGQHNYLCAGRNDCIIDKIRRKNCPACRLQKCLQAGMNLGARKS [H15C]"
assay_value = -0.152

[[record]]
sequence_content = "SKICLVCGDEASGCHYGVVTCGSHKVFFKRAVEGQHNYLCAGRNDCIIDKIRRKNCPACRLQKCLQAGMNLGARKS [C24H]"
assay_value = -0.67

[[record]]
sequence_content = "SKICLVCGDEASGCHYGVVTCGSCKVFFKRAVEGQHNILCAGRNDCIIDKIRRKNCPACRLQKCLQAGMNLGARKS [Y38I]"
assay_value = -0.069

[[record]]
sequence_content = "SKICLVCGDEASGCHYGVVTCGSCKLFFKRAVEGQHNYLCAGRNDCIIDKIRRKNCPACRLQKCLQAGMNLGARKS [V26L]"
assay_value = -0.049

[[record]]
sequence_content = "SKICLVCGDEASGCKYGVVTCGSCKVFFKRAVEGQHNYLCAGRNDCIIDKIRRKNCPACRLQKCLQAGMNLGARKS [H15K]"
assay_value = 0.032

[[record]]
sequence_content = "SKICLVCGDEASGCHYGVVTCGSCKVFPKRAVEGQHNYLCAGRNDCIIDKIRRKNCPACRLQKCLQAGMNLGARKS [F28P]"
assay_value = -1.21

[[record]]
sequence_content = "SKICLVCGDEASGCHYGVVTCISCKVFFKRAVEGQHNYLCAGRNDCIIDKIRRKNCPACRLQKCLQAGMNLGARKS [G22I]"
assay_value = -0.259

[[record]]
sequence_content = "SKICLVCGDEASGCHYGVVTCGSCKVFFKRAVEGQHNQLCAGRNDCIIDKIRRKNCPACRLQKCLQAGMNLGARKS [Y38Q]"
assay_value = -0.118


Given the variant SKICLVCGDEASGCHYGVVTCGSCKVFFKRAVEGQHNYLCAGRNDCIIDKIRRHNCPACRLQKCLQAGMNLGARKS [K54H] , what is its reported abundance fitness?
-0.118

// query: SKICLVCGDEVSGCHYGVVTCGSCKVFFKRAVEGQHNYLCAGRNDCIIDKIRRKNCPACRLQKCLQAGMNLGARKS [A11V]
-0.222

// same read-out, input: SKICLVCGDEASGCHYGVVTCGSCKVFFKRAVEGQWNYLCAGRNDCIIDKIRRKNCPACRLQKCLQAGMNLGARKS [H36W]
-0.157

Further, for SKICLVCGDEASGCHYGVVTCGWCKVFFKRAVEGQHNYLCAGRNDCIIDKIRRKNCPACRLQKCLQAGMNLGARKS [S23W] ?
-0.193

Similarly, SKICLVCGDEASGCHYGVVTCGSCKVFFKRAVEGQHNYLCAGRNDCIIDKIRRKNCPACRLWKCLQAGMNLGARKS [Q62W] ?
-0.059
